assay: Toxicity liver stage against HepG2, at 10uM; type: cell-based; design: test concentration 10 uM, cell line HepG2-A16-CD81EGFP; details: human, HepG2-A16-CD81EGFP cells; read-out: INHIBITION
I'd be grateful if you could share measured cytotoxicity at 10 µM for these entries.
All answers are understood in %, so give the number only.

Lab book: cytotoxicity at 10 µM of CCC(O)(CNCc1ncc[nH]1)c1ccc(Br)cc1 (centres undefined) noted as 3.54

Lab book: cytotoxicity at 10 µM of `CCc1noc(-c2ccc(SCC(=O)O)nc2)n1` noted as -10.9

Lab book: cytotoxicity at 10 µM of `O=C(c1cc(C2CC2)nc2onc(-c3ccccc3)c12)N1CC[C@H](O)C1` noted as -40.4

Lab book: cytotoxicity at 10 µM of O=C(CN1CC(c2ccccc2)CC1=O)NCc1cc2n(n1)CCNC2 (centres undefined) noted as 1.05

Lab book: cytotoxicity at 10 µM of `CC(C)(C(=O)NCc1ccccc1F)n1cc(Br)cn1` noted as 0.296

Lab book: cytotoxicity at 10 µM of `CN(C)CCN1C[C@@H]2OCCN(Cc3cnn(C)c3)[C@@H]2C1` noted as -140

Lab book: cytotoxicity at 10 µM of CC(O)(CNS(=O)(=O)Cc1ccon1)c1ccsc1 (centres undefined) noted as 2.76

Lab book: cytotoxicity at 10 µM of `O=C(NCc1ccccn1)Nc1cc(C(F)(F)F)c[nH]c1=O` noted as -2.87

Lab book: cytotoxicity at 10 µM of `CC(C)N1CCO[C@H]2CN(C(=O)c3ccccn3)C[C@H]21` noted as -67.6

Lab book: cytotoxicity at 10 µM of CC(NCCCn1cccn1)c1ccc(N2CCCS2(=O)=O)cc1 (centres undefined) noted as -0.828

Lab book: cytotoxicity at 10 µM of `COc1ccc(OC)c(CNC(=O)N2CCC(n3cncn3)CC2)c1` noted as 2.46

Lab book: cytotoxicity at 10 µM of COCC1CN(C(C)=O)CCN(c2cc(C)ncn2)C1 (centres undefined) noted as 4.96

Lab book: cytotoxicity at 10 µM of `O=C(COCc1ccccc1)N1CCN(c2ccc(Cl)cn2)CC1` noted as -5.98

Lab book: cytotoxicity at 10 µM of NC1CCC(NC(=O)c2ccc3nc(-c4ccc(F)cc4)cn3c2)CC1 (centres undefined) noted as -17.7

Lab book: cytotoxicity at 10 µM of `CC(=O)NCC(=O)N1CCN(C)c2ncccc2C1` noted as -113

Lab book: cytotoxicity at 10 µM of Cc1cc(F)ccc1N1CCCC(Nc2nccn3cnnc23)C1=O (centres undefined) noted as -6.62

Lab book: cytotoxicity at 10 µM of O=C(NCC1CC1)C1CCC2(CCN(C(=O)c3cccs3)CC2)O1 (centres undefined) noted as -0.979

Lab book: cytotoxicity at 10 µM of Cc1nn(C)c2nc(N3CCCC3c3nccs3)sc12 (centres undefined) noted as -2.87

Lab book: cytotoxicity at 10 µM of COCCCC1(CO)CCCN(CCc2ccccn2)C1 (centres undefined) noted as 7.42

Lab book: cytotoxicity at 10 µM of CN(C)Cc1cc(C2CCN(C(=O)C3CCCNC3)CC2)nn1C (centres undefined) noted as -8.67

Lab book: cytotoxicity at 10 µM of COCCNc1cc(C2CCCNC2)ccn1 (centres undefined) noted as -7.17

Lab book: cytotoxicity at 10 µM of `Oc1ccc(Cl)cc1CNCc1cccc(C(F)(F)F)c1` noted as -6.13

Lab book: cytotoxicity at 10 µM of `CCOc1nn(CC)cc1-c1nnc(SCc2cccnc2)n1CC` noted as -0.244

Lab book: cytotoxicity at 10 µM of `COc1ccc(C(=O)N2C[C@@H](CN3CCCCC3)[C@@H](CO)C2)cc1Cl` noted as -0.703
